IC50: recorded values
Tested on: NF-κB pathway (SEAP) in THP1-Dual cells
Experiment: THP-1 Dual cell SEAP assay (L18-MDP stimulated)
Type: cell-based
Conditions: Homo sapiens, THP1-Dual, read-out: NFkB THP1 IC50

Recorded IC50, per entry:
MOLECULE	RESULT
COc1cc2ncc(-c3ccc(O)cc3)n2cc1S(=O)(=O)C(C)(C)C [Example 149]	250 to 1000 nM
COc1cc2ncc(-c3cc(F)cc([N+](=O)[O-])c3)n2cc1S(=O)(=O)C(C)(C)C [Example 13]	> 1000 nM
CC(C)(C)S(=O)(=O)c1ccn2ncc(-c3cc(F)nc(NCCCO)c3)c2c1 [Example 296]	< 50 nM
COc1cc2ncc(-c3cc(F)nc(N[C@@H]4CCC[C@@H](O)C4)c3)n2cc1S(=O)(=O)C(C)(C)C (racemic) [Example 205]	50 to 250 nM
COc1cc2ncc(-c3cc(F)c(C#N)c(NCCCO)c3)n2cc1S(=O)(=O)C(C)(C)C [Example 214]	50 to 250 nM
COc1cc2ncc(-c3cc(F)nc(NCC4CCNC(=O)C4)c3)n2cc1S(=O)(=O)C(C)(C)C (centres unmarked) [Example 188]	< 50 nM

Lookup: Requested field: IC50. Item: CCCS(=O)(=O)Nc1ccc(-c2cnc3cc(OC)c(S(=O)(=O)C(C)(C)C)cn23)cc1OC(F)F [Example 293]
Found: > 1000 nM

Lookup: Requested field: IC50. Item: COc1cc2ncc(-c3cc(F)nc(N(C)CCCO)c3)n2cc1S(=O)(=O)C(C)(C)C [Example 209]
Found: 50 to 250 nM

###

Target: GST-RIPK2 fusion protein (human RIPK2 amino acids 1-310) (Homo sapiens (Human), UniProt O43353)
Sequence (O43353 1-310): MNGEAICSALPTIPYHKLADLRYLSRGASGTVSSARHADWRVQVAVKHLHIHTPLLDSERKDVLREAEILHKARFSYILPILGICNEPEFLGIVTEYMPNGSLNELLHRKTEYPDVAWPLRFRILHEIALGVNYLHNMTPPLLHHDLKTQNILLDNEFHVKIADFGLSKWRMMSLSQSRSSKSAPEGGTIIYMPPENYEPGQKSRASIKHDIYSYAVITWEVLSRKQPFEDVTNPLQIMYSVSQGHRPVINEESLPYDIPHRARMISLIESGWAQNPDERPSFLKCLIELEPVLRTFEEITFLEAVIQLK
Experiment: RIPK2 binding competition assay (TR-FRET, Tracer 199)
IC50: recorded values

COMPOUND	IC50
CC(C)(C)S(=O)(=O)c1cn2c(-c3cc(F)c(N)nc3F)cnc2cc1OC(F)F	2.5 to 20 nM
COc1cc2ncc(-c3cc(F)nc(NCCC(C)O)c3)n2cc1S(=O)(=O)C(C)(C)C (racemic) [Example 190]	< 1 nM
COc1cc2ncc(-c3cc(F)nc(NCC4CCNCC4)c3)n2cc1S(=O)(=O)C(C)(C)C	1 to 2.5 nM
COc1cn2ncc(-c3cc(Cl)c(N)nc3F)c2cc1S(=O)(=O)C(C)(C)C	2.5 to 20 nM
COc1cc2ncc(-c3cc(F)nc(NC[C@H](O)CO)c3)n2cc1S(=O)(=O)C(C)(C)C	1 to 2.5 nM
COc1cc2ncc(-c3cc(F)nc(N[C@@H](C)CO)c3)n2cc1S(=O)(=O)C(C)(C)C	1 to 2.5 nM

Lookup: Requested field: IC50. Item: `CCCS(=O)(=O)Nc1cc(-c2cnc3cc(OCC)c(S(=O)(=O)C(C)C)cn23)ccc1OC`
Found: 2.5 to 20 nM

Lookup: Requested field: IC50. Item: `COc1cc2ncc(-c3cc(F)nc(NCCCO)c3)n2cc1C(=O)N(C)C`
Found: 2.5 to 20 nM

###

Target: GST-RIPK2 fusion protein (human RIPK2 amino acids 1-310) (Homo sapiens (Human), UniProt O43353)
Assay: RIPK2 binding competition assay (TR-FRET, Tracer 199)
IC50: recorded values

Recorded IC50, per entry:
COMPOUND	IC50
COc1cc2ncc(-c3cc(F)nc(NCC4CCN(C)C(=O)C4)c3)n2cc1S(=O)(=O)C(C)(C)C (stereo not shown) [Example 200]	1 to 2.5 nM
COc1cc2ncc(-c3cc(F)c(N)nc3OC)n2cc1S(=O)(=O)C(C)(C)C [Example 106]	2.5 to 20 nM
CCCS(=O)(=O)Nc1cc(-c2cnc3cc(OC)c(S(=O)(=O)C(C)(C)C)cn23)ccc1OC [Example 130]	1 to 2.5 nM
CCCS(=O)(=O)Nc1cc(-c2cnc3cc(OC)c(S(=O)(=O)C(C)(C)C)cn23)cnc1OC(F)F [Example 286]	2.5 to 20 nM
COc1cc2ncc(-c3cc(F)nc(NCC(C)(C)O)c3)n2cc1S(=O)(=O)C(C)(C)C [Example 224]	1 to 2.5 nM
CCS(=O)(=O)Nc1cc(-c2cnc3cc(OC)c(S(=O)(=O)C(C)(C)C)cn23)cc(F)c1OC [Example 294]	< 1 nM
COc1ccc(CNc2cc(-c3cnc4ccc(S(=O)(=O)C(C)(C)C)cn34)cc(F)n2)cc1 [Example 168]	1 to 2.5 nM
COc1cc2ncc(-c3cc(F)nc(NC4CCOCC4)c3)n2cc1S(=O)(=O)C(C)(C)C [Example 212]	2.5 to 20 nM

Lookup: Requested field: IC50. Item: COc1cc2ncc(-c3ccnc(NCCCO)c3)n2cc1S(=O)(=O)C(C)(C)C [Example 247]
Found: 2.5 to 20 nM

Lookup: Requested field: IC50. Item: COc1cc2ncc(-c3cc(F)nc(N[C@@H]4CC[C@H](O)C4)c3)n2cc1S(=O)(=O)C(C)(C)C (racemic) [Example 192]
Found: < 1 nM

Lookup: Requested field: IC50. Item: COc1cc2ncc(-c3cc(F)nc(NCc4ccccc4)c3)n2cc1S(=O)(=O)C(C)(C)C [Example 175]
Found: < 1 nM

Lookup: Requested field: IC50. Item: COc1cc2ncc(-c3cc(N)c(OCCO)c(F)c3)n2cc1S(=O)(=O)C(C)(C)C [Example 64]
Found: 2.5 to 20 nM

Lookup: Requested field: IC50. Item: CCCS(=O)(=O)Nc1cc(-c2cnn3ccc(S(=O)(=O)C(C)(C)C)cc23)ccc1OC [Example 281]
Found: 2.5 to 20 nM

Lookup: Requested field: IC50. Item: COc1cc2ncc(-c3cc(F)c(N)nc3F)n2cc1S(=O)(=O)C(C)(C)C(F)F [Example 154]
Found: 2.5 to 20 nM

Lookup: Requested field: IC50. Item: CCCS(=O)(=O)Nc1cc(-c2cnc3cc(OC)c(S(=O)(=O)C(C)(C)C)cn23)cc(F)c1OCC [Example 270]
Found: 1 to 2.5 nM

Lookup: Requested field: IC50. Item: CC(C)(O)CCNc1cc(-c2cnc3ccc(S(=O)(=O)C(C)(C)C)cn23)cc(F)n1 [Example 174]
Found: 2.5 to 20 nM
